- target or test system: GRIP2_6, Q9C0E4
- Sequence (Q9C0E4 648-740): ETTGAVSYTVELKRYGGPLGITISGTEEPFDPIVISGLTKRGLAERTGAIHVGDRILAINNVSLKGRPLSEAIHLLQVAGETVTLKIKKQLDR
- measurement notes: holdup assay
- Set-up: key: below the threshold = too weak to quantify, mostly under pKd 3.1 to 4
- conditions used: plain residues with an end cap or a label only (N-terminal biotin on a linker: ado-ado)

{"binder": "GNSVLKSTQF [SLC22A12, Q96S37]", "pKd": "below the threshold"}
{"binder": "QSLNRMEYIV [JAG1, P78504]", "pKd": 4.61}
{"binder": "FNSYSLTGYV [CLDN2, P57739]", "pKd": "below the threshold"}
{"binder": "LPAHHNATRL [SLC34A1, Q06495;Q06495-1]", "pKd": "below the threshold"}
{"binder": "YLEPVLSSEL [ATP2A2, P16615;P16615-3]", "pKd": "below the threshold"}
{"binder": "VDSTVKVWTC [TRAF7, Q6Q0C0]", "pKd": 4.94}
